Answer each item with its documented normalized RNA/DNA level with ligand (log10).
B1: library; a variant is named by its letters at N, in order (parent)
chain: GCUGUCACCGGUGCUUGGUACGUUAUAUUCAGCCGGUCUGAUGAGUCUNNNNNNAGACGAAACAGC

# Variants of: B1
# Measurement description: normalized RNA/DNA level with ligand (relative to sTRSVctl = 100) (log10 (% of sTRSVctl)); HEK293T overexpressing SLC46A1; ligand concentration (+) RNA-Seq: 6 mM; higher = less ribozyme self-cleavage, higher mRNA level
# Assay context: with (6R,S)-folinic acid; ligand present: yes

These solved cases illustrate the format of a correct answer.
Mutation annotation: AUCAAG
Readout value: 2

Mutation annotation: CACUUC
Readout value: 2.03

Mutation annotation: AGAUUA
Readout value: 2.01

Mutation annotation: GUUGUU
Readout value: 2.04

Mutation annotation: UAACCA
Readout value: 1.98

Mutation annotation: AUAUUU
Readout value: 2.02

Mutation annotation: UUUAAU
Readout value: 1.99

Mutation annotation: GGCCUC
Readout value: 2.06

Mutation annotation: CUGGAC
Readout value: 2

Mutation annotation: UCUCGU
Readout value: 2.01

For each of the variants below, state normalized RNA/DNA level with ligand (log10).
1. CGAGGA
2. GAGCAG
3. UCCUAC
4. UGAGGA

Resp:
[2.04, 2.02, 2.05, 1.99]
